This collection of values is drawn from patent US20150266974A1.

Molecular target: T1, human PCSK9 (human, UniProt Q8NBP7 31-692, limits assumed)
T1 construct: also called hPCSK9; huPCSK9
T1 sequence (Q8NBP7 31-692 limits assumed): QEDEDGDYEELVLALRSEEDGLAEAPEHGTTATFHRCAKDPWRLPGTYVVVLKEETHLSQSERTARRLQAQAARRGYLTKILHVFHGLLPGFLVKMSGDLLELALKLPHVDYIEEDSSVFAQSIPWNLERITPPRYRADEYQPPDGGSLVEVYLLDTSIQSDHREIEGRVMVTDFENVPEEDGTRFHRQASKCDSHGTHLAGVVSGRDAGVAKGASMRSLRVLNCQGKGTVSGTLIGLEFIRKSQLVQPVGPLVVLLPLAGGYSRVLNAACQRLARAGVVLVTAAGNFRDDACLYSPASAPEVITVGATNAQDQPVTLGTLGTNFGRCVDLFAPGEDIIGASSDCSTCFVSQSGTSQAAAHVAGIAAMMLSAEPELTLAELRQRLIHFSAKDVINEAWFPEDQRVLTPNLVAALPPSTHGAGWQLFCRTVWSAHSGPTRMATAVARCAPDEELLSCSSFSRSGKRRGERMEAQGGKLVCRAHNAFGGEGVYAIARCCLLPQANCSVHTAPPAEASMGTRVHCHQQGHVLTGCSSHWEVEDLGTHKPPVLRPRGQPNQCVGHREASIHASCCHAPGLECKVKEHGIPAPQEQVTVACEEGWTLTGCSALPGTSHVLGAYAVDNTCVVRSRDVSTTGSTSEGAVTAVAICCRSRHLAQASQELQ
Assay: SPR Biacore 3000, KD at pH 5.5 over KD at pH 7.4
Description: These antibodies were expressed and purified for determination of their KD at 7.4 and their KD ratio of pH5.5/pH 7.4, as measured on a surface plasmon resonance Biacore 3000 biosensor equipped with a research-grade sensor chip using HBS-EP running buffer (Biacore AB, Uppsala, Sweden—now GE Healthcare). […] Dissociation was monitored for 5 min. […]
assay_metric: KD ratio pH 5.5/7.4

| binder | val |
| --- | --- |
| 5L1724H23_6L3H3 (antibody, V domains shown, Only CDRs printed; Full-length IgG) VH: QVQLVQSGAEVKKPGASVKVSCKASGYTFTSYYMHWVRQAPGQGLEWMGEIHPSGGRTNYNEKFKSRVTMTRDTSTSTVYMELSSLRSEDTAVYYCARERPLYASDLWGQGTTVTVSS VL: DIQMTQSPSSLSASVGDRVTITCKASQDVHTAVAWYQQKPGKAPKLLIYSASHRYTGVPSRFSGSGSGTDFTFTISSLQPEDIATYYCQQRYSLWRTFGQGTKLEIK | 5.5 |
